- Tested Target: Tyrosine-protein kinase CSK (Homo sapiens) (UniProt P41240);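 further: each value is an averaged inhibition reading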
- Sequence (P41240 2-450 limits assumed): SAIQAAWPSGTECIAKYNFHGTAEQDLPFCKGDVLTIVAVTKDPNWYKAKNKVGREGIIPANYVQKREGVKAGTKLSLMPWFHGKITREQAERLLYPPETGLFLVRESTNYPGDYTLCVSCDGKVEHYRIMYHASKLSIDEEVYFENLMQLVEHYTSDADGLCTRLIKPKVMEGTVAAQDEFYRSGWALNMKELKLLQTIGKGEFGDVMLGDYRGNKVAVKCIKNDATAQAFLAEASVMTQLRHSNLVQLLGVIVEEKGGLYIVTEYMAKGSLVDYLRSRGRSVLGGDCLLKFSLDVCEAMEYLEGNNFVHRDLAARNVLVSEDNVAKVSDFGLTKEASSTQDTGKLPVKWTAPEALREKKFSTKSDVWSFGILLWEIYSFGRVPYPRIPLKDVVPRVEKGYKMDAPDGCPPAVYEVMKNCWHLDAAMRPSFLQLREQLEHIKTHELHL
- Measurement Setup: at 1 µM
Property Label: inhibition (%)
A number alone suffices; assume %.

Prompt line: Item `CN1CCN(CCCNc2nc3ccc(Oc4ccc(NC(=O)Nc5cc(C(F)(F)F)ccc5F)cc4)cc3[nH]2)CC1` has what recorded inhibition?
Response line: -3.31

Prompt line: Item `c1ccc(Oc2ccc(Nc3ncc(-c4ccccc4)o3)cc2)cc1` has what recorded inhibition?
Response line: 1.07

Prompt line: Item `CCS(=O)(=O)c1ccc(OC)c(Nc2ncc(-c3cccc(-c4ccccc4F)c3)o2)c1` has what recorded inhibition?
Response line: 4.82

Prompt line: Item `O=C1NC(=O)C(c2cccc(Cl)c2)=C1Nc1ccc(Cl)c(C(=O)O)c1` has what recorded inhibition?
Response line: 1.91

Prompt line: Item `NCc1ccc(-n2c(-c3nonc3N)nc3cnccc32)cc1` has what recorded inhibition?
Response line: 1.46

New cases:
Prompt line: Item `Fc1ccc(-c2ncn(CCCN3CCOCC3)c2-c2ccncc2)cc1` has what recorded inhibition?
Response line: -6.18

Prompt line: Item `COc1cc2ncn(-c3cc(OCCc4ccccc4)c(C(N)=O)s3)c2cc1OC` has what recorded inhibition?
Response line: 2.94

Prompt line: Item `C/C(Nc1ccc(S(N)(=O)=O)cc1)=C1/C(=O)Nc2ccccc21` has what recorded inhibition?
Response line: -4

Prompt line: Item `Cc1ccc(C(=O)NC2CCC2)cc1-c1ccc(C(=O)NCC2CC2)cc1` has what recorded inhibition?
Response line: 0.62

Ref: ChEMBL document CHEMBL1961873
